The origin of these recorded values is PubChem BioAssay (NCI).

- Tested on: UACC-62 melanoma
- ASSAY_PROTOCOL: NCI tumour cell line growth inhibition, 48 h
PARAMETER: TGI (µM)
Respond numerically; units are µM and should not be typed.

1. Cc1ccc2c(c1)C(=O)N1CCC[C@H]1C=N2: 34.7

// next entry
input: Find TGI (UACC-62 melanoma) for the entry `CC1=C(C(=O)NCc2ccccc2)C(c2ccc([N+](=O)[O-])cc2)C(C(=O)NCc2ccccc2)=C(C)N1`
output: 64.6

----------
- Tested on: SK-MEL-5 melanoma
- ASSAY_PROTOCOL: NCI tumour cell line growth inhibition, 48 h
PARAMETER: GI50

Examples with answers:
1) CCN(CC)CCCC(C)Nc1nc(C)cc(Nc2ccc3nc(C)cc(N)c3c2)n1 (centres undefined): > 100 µM
2) COC1=CC(=O)C(OC)=C(OC)C1=O: 16.2 µM
3) Cc1cc(O)c(C2=NN(c3ccc(S(N)(=O)=O)cc3)C(c3ccc(N(C)C)cc3)C2)c(C)c1Cl (centres undefined): 14.5 µM
4) OC(COc1ccc(F)cc1)Cn1cnc2c(Cl)ncnc21 (centres undefined): 81.4 µM
5) Fc1ccc(-c2ncn(C3CCNCC3)c2-c2ccnc(Oc3ccc(F)c(F)c3)n2)cc1: 3.55 µM

input: Field request: GI50 | item: `O=Cc1ccc(-c2ccc(-c3nc4ccccc4o3)cc2)s1`
output: 21.8 µM

input: Field request: GI50 | item: `O=C(Nc1ccccc1O)c1ccc(CNc2ccnc(C(F)(F)F)c2)cc1`
output: 2.2 µM

input: Field request: GI50 | item: `COc1ccc(-c2nc(C(=O)c3ccccc3)n(CC(=O)c3ccccc3)c2-c2ccc(OC)cc2)cc1`
output: > 100 µM

input: Field request: GI50 | item: `CN1C(=O)[C@@H](NC(=O)[C@H](CCC(F)(F)F)[C@H](CCC(F)(F)F)C(N)=O)N=C(c2ccccc2)c2ccccc21`
output: 36.1 µM

----------
Form field: TGI (one value per entry).
- Test system: HOP-92 NSCLC
- ASSAY_PROTOCOL: NCI tumour cell line growth inhibition, 48 h
Where a SMILES comes first, the peptide text is derived from it. [ ]: non-standard residue; d: D form. The star is where a group is joined. Tyr(3-Br) = N[C@@H](Cc1ccc(O)c(Br)c1)C(=O)O; Boc = CC(C)(C)OC(=O)*

Examples with answers:
1) CCN1C[C@]2(C)CC[C@H](OC)C34C1C([C@H](OC(C)=O)[C@@H]32)[C@@]1(OC)C[C@H](OC)[C@H]2C[C@@H]4[C@@H]1[C@H]2O: > 100 µM
2) Cc1ccc(NC(=O)C(=O)CC(=O)C2CCOC2=O)c(C)c1 (centres undefined): > 100 µM
3) COc1cc(C(=O)O[C@@H]2[C@@H](OC(=O)c3cc(OC)c(OC)c(OC)c3)[C@@H](OC)O[C@@H]3CO[C@@H](c4ccccc4)O[C@@H]23)cc(OC)c1OC: > 100 µM
4) C=C(C)CC1(O)C(=O)C(OCC)=C1OCC (centres undefined): > 100 µM
5) Oc1ccccc1C=Nc1ccc(-c2nc3ccccc3[nH]2)cc1: > 100 µM

input: Field request: TGI | item: `CCN1C2=NCCN2S(=O)(=O)c2ccccc21`
output: > 100 µM

input: Field request: TGI | item: COC(=O)[C@H](Cc1ccc(O)c(Br)c1)NC(=O)[C@H](Cc1ccc(O)cc1)NC(=O)OC(C)(C)C (Boc-Tyr-[Tyr(3-Br)]-OMe)
output: 93 µM

input: Field request: TGI | item: CN(C)CC1COC2Cc3ccccc3C1O2 (centres undefined)
output: > 100 µM

input: Field request: TGI | item: `CN1CCN(c2ccc(Nc3nc(N)c(C(=O)c4ccc5c(c4)OCCO5)s3)cc2)CC1`
output: 3.5 µM
